Each recorded value in this set is attributed to ChEMBL document CHEMBL5154865.

# solubility at 5 min listing for each entry below
procedure_summary: Solubility of compound in DMSO at pH 4.5 after 5 mins measured by HPLC analysis
Type: physicochemical
Please respond with the number in µM and leave the unit unwritten.

Below: 4 compounds and their reported solubility at 5 min.
CC1(C)CCn2c(=O)c(=O)n(CCCO)c3cccc1c32: 50.1
CC1(C)CCn2c(=O)c(=O)n(Cc3nn[nH]n3)c3cccc1c32: 50.5
CO[C@@H]1O[C@H](Cn2c(=O)n3c4c(cccc42)C(C)(C)CC3)[C@@H](O)[C@H]1O: 48.8
Cc1cc2c3c(c1C)C(C)(C)CCn3c(=O)c(=O)n2C[C@H](O)[C@H](O)[C@H](O)CO: 50

Give the reported solubility at 5 min for this compound. `CC1(C)CCn2c(=O)n(C[C@H](O)[C@H](O)[C@H](O)CO)c3cccc1c32`
47.8

###

procedure_summary: Metabolic stability in mouse liver microsomes measured at 1 uM after 30 mins by LC-MS/MS analysis
Format: ADME, Microsome
condition_context: read-out: Stability
# remaining at 0.5 h, 1 µM listing for each entry below
Please respond with the number in % and leave the unit unwritten.

CC1(C)CCn2c(=O)n(C[C@H](O)[C@H](O)[C@H](O)CO)c3cccc1c32: 96.4
CO[C@@H]1O[C@H](Cn2c(=O)n3c4c(cccc42)C(C)(C)CC3)[C@@H](O)[C@H]1O: 74.3
CC1(C)CCn2c(=O)c(=O)n(CCCO)c3cccc1c32: 96.1
Cc1cc2c3c(c1C)C(C)(C)CCn3c(=O)c(=O)n2C[C@H](O)[C@H](O)[C@H](O)CO: 99.6

Give the reported remaining at 0.5 h, 1 µM for this molecule. `CC1(C)CCn2c(=O)c(=O)n(Cc3nn[nH]n3)c3cccc1c32`
96.1

###

# LD50 at 336 h listing for each entry below
procedure_summary: Acute toxicity in Swiss albino mouse assessed as lethal dose administered orally daily for 14 days
condition_context: in vivo, route po, time 14 day

CC1(C)CCn2c(=O)c(=O)n(CCCO)c3cccc1c32: > 2000 mg/kg

Give the reported LD50 at 336 h for this molecule. `Cc1cc2c3c(c1C)C(C)(C)CCn3c(=O)c(=O)n2C[C@H](O)[C@H](O)[C@H](O)CO`
> 2000 mg/kg

###

procedure_summary: Metabolic stability in human liver microsomes measured at 1 uM after 30 mins by LC-MS/MS analysis
Assay type: ADME, Microsome
condition_context: read-out: Stability
observable: remaining at 0.5 h, 1 µM (%)
Please respond with the number in % and leave the unit unwritten.

Cc1cc2c3c(c1C)C(C)(C)CCn3c(=O)c(=O)n2C[C@H](O)[C@H](O)[C@H](O)CO: 100
CO[C@@H]1O[C@H](Cn2c(=O)n3c4c(cccc42)C(C)(C)CC3)[C@@H](O)[C@H]1O: 90
CC1(C)CCn2c(=O)c(=O)n(CCCO)c3cccc1c32: 100
CC1(C)CCn2c(=O)c(=O)n(Cc3nn[nH]n3)c3cccc1c32: 98.9

// moving on: another record for remaining at 0.5 h, 1 µM
Give the reported remaining at 0.5 h, 1 µM for this compound. `CC1(C)CCn2c(=O)n(C[C@H](O)[C@H](O)[C@H](O)CO)c3cccc1c32`
100

###

# solubility at 5 min listing for each entry below
procedure_summary: Solubility of compound in DMSO at pH 1.2 after 5 mins measured by HPLC analysis
Type: physicochemical
Please respond with the number in µM and leave the unit unwritten.

CC1(C)CCn2c(=O)c(=O)n(CCCO)c3cccc1c32: 51.2
CC1(C)CCn2c(=O)n(C[C@H](O)[C@H](O)[C@H](O)CO)c3cccc1c32: 48.2
CC1(C)CCn2c(=O)c(=O)n(Cc3nn[nH]n3)c3cccc1c32: 51.8
Cc1cc2c3c(c1C)C(C)(C)CCn3c(=O)c(=O)n2C[C@H](O)[C@H](O)[C@H](O)CO: 50.8

// moving on: another record for solubility at 5 min
Give the reported solubility at 5 min for this molecule. `CO[C@@H]1O[C@H](Cn2c(=O)n3c4c(cccc42)C(C)(C)CC3)[C@@H](O)[C@H]1O`
41.2
